Hey, just so you know, these numbers are from patent US5120726A.

IC50 values by entry
System: cells from the thymus of normal BALB/c mice (lymphocyte proliferation)
Test: comitogen-induced thymocyte proliferation procedure (LAF), lymphocyte proliferation
Assay type: cell-based
Conditions: Mus musculus, Lymphocyte; thymocytes cultured 72 hours with PHA and IL-1, tritiated thymidine last six hours; read-out: LAF IC50

molecule | IC50, nM
CO[C@H]1C[C@@H]2CC[C@@H](C)[C@@](O)(O2)C(=O)C(=O)N2CCCC[C@H]2C(=O)O[C@H]([C@H](C)C[C@@H]2CC[C@@H](O)[C@H](OC)C2)CC(=NNc2ccccn2)[C@H](C)/C=C(\C)[C@@H](O)[C@@H](OC)C(=O)[C@H](C)C[C@H](C)/C=C/C=C/C=C/1C [Example 3, Rapamycin 27-(2-Pyridinylhydrazone)] | 15.9
CO[C@H]1C[C@@H]2CC[C@@H](C)[C@@](O)(O2)C(=O)C(=O)N2CCCC[C@H]2C(=O)O[C@H]([C@H](C)C[C@@H]2CC[C@@H](O)[C@H](OC)C2)CC(=NNC(C)=O)[C@H](C)/C=C(\C)[C@@H](O)[C@@H](OC)C(=O)[C@H](C)C[C@H](C)/C=C/C=C/C=C/1C [Example 1, Rapamycin 27-(methylcarbonyl hydrazone)] | 17.3
CO[C@H]1C[C@@H]2CC[C@@H](C)[C@@](O)(O2)C(=O)C(=O)N2CCCC[C@H]2C(=O)O[C@H]([C@H](C)C[C@@H]2CC[C@@H](O)[C@H](OC)C2)CC(=NNC(=O)Nc2ccccc2)[C@H](C)/C=C(\C)[C@@H](O)[C@@H](OC)C(=O)[C@H](C)C[C@H](C)/C=C/C=C/C=C/1C [Example 2, Rapamycin 27-(4-Phenylsemicarbazone)] | 19.2
CO[C@H]1C[C@@H]2CC[C@@H](C)[C@@](O)(O2)C(=O)C(=O)N2CCCC[C@H]2C(=O)O[C@H]([C@H](C)C[C@@H]2CC[C@@H](O)[C@H](OC)C2)CC(=NNC(N)=O)[C@H](C)/C=C(\C)[C@@H](O)[C@@H](OC)C(=O)[C@H](C)C[C@H](C)/C=C/C=C/C=C/1C [Example 4, Rapamycin 27-semicarbazone] | 37.2
